The origin of these recorded values is ChEMBL document CHEMBL3233007.

target: 3',5'-cyclic-AMP phosphodiesterase 4D (Homo sapiens, UniProt Q08499); assay: Inhibition of human PDE4D2 catalytic domain (86 to 413aa) expressed in Escherichia coli strain BL21 after 15 mins by liquid scintillation counting in presence of [3H]-cAMP
Sequence (Q08499 whole entry, the tested form may be a part): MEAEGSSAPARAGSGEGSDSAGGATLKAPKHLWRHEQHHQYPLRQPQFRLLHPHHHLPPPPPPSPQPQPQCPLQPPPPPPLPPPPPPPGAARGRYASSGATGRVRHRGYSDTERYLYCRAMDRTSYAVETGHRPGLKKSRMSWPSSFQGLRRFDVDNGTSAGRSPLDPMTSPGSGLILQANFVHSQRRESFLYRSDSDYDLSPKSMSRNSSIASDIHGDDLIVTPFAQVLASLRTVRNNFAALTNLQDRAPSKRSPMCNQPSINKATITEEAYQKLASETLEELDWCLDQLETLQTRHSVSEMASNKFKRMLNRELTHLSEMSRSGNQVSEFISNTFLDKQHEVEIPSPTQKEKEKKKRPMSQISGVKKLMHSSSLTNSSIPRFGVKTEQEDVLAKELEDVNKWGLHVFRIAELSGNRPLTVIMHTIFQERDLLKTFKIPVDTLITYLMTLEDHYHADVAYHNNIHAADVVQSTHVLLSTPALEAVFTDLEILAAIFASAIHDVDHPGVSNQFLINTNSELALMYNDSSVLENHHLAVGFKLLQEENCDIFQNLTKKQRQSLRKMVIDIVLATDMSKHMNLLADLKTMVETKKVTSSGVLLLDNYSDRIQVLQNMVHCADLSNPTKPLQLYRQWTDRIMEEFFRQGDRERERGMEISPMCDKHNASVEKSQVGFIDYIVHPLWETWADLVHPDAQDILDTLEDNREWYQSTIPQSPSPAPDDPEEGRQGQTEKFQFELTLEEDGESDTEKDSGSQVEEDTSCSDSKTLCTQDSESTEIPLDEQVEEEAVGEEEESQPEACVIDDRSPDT
metricName: IC50 (µM)

Some solved cases for reference:
• COc1cc2ccc(=O)oc2c2c1OC(C)(C)CC2 = 1.53
• COc1cc2oc(=O)ccc2c(OC)c1C[C@H](OC(=O)[C@]1(O)C[C@@H](O)[C@@H](O)[C@H](OC(=O)/C=C/c2ccc(O)c(O)c2)C1)C(C)(C)O = 16.7
• COc1cc(OC)c2ccc(=O)oc2c1CC=C(C)C = 6.82
• COc1cc(O)c(/C=C/C(=O)O[C@@H](Cc2c(OC)cc3oc(=O)ccc3c2OC)C(C)(C)O)c(OC)c1CC=C(C)C = 7.81
• CC1(C)C=Cc2c(c(O)cc3ccc(=O)oc23)O1 = 2.38

P: COc1cc2oc(=O)ccc2c(OC)c1CC=C(C)C
Q: COc1cc(OC)c2ccc(=O)oc2c1/C=C/[C@H]1C[C@@H](C=C(C)C)c2c(c3ccccc3n(C)c2=O)O1
Given the listed items, does P or Q have the lesser reported IC50? Indicate your choice by writing its label. Q
(Q: 0.14 µM, P: 9.98 µM)

a: COc1cc2c(c3oc(=O)ccc13)CCC(C)(C)O2
b: COC1=CC(=O)c2cc(C)cc(-c3c(OC)cc(OC)c4ccc(=O)oc34)c2C1=O
c: COc1cc2oc(=O)ccc2c(OC)c1CCC(C)C
Which order do these items take when sorted by rising IC50? List them. Labels, requested order. a, b, c
(a: 2.2 µM, b: 5.51 µM, c: 11.5 µM)

P: COc1cc(OC)c2ccc(=O)oc2c1CCC(C)C
Q: COc1cc2c(c3oc(=O)ccc13)C=CC(C)(C)O2
Just curious, which one has the larger IC50 reading, P or Q ? Indicate your choice by writing its label. P
(P: 10.2 µM, Q: 1.87 µM)
